Exercise: state measured pIC50 for each of the molecules provided.
- targetEntity: Transient receptor potential cation channel subfamily M member 8 (Rattus norvegicus)
- Sequence (Q8R455 whole entry): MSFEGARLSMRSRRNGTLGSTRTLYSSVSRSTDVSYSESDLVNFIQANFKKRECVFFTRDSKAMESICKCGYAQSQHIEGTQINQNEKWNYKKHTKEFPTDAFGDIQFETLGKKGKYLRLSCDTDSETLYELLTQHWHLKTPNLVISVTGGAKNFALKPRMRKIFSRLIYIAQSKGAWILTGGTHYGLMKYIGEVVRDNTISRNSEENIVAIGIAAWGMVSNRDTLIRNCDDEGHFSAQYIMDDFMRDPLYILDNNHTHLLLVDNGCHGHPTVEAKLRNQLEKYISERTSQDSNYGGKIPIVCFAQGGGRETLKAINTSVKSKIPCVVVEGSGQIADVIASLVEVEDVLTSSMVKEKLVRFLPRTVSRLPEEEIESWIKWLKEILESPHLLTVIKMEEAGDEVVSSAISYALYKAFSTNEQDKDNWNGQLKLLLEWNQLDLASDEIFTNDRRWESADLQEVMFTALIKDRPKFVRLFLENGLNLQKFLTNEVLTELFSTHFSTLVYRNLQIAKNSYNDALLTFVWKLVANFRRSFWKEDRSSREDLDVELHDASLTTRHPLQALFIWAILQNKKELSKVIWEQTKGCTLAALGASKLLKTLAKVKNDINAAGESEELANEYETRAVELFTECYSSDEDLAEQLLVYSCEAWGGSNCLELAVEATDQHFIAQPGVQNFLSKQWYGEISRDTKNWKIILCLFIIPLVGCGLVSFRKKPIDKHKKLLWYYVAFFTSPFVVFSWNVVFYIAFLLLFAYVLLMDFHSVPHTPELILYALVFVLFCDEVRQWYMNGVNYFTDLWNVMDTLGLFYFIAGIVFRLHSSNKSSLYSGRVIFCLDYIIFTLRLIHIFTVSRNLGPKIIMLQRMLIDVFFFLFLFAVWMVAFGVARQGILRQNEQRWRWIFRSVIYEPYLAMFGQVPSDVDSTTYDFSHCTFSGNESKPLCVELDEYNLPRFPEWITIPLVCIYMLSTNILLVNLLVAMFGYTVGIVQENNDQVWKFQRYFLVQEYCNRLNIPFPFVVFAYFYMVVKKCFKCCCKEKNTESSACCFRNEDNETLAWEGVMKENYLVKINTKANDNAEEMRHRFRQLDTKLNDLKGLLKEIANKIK
- experiment: Antagonist activity at rat TRPM8 expressed in CHO cells assessed as inhibition of icilin-induced Ca2+ influx incubated 2.5 mins prior icilin induction by flash luminometry
Lab note: report pIC50 as minus log10 of the concentration in molar units, number only.

O=C(Nc1ccc(F)cc1)N1CCCCC1c1ccc(C(F)(F)F)cc1 (stereo unspecified) tested on Transient receptor potential cation channel subfamily M member 8 (Rattus norvegicus) gave pIC50: 5.57

O=C(Nc1ccccc1)N1CCc2sccc2C1c1ccc(C(F)(F)F)cc1 (stereo unspecified) tested on Transient receptor potential cation channel subfamily M member 8 (Rattus norvegicus) gave pIC50: 6.54

O=C(c1ccccc1F)N1CCc2sccc2C1c1ccc(C(F)(F)F)cc1 (stereo unspecified) tested on Transient receptor potential cation channel subfamily M member 8 (Rattus norvegicus) gave pIC50: 6.29

O=C(Nc1ccc(F)cc1)N1CCn2cccc2C1c1ccc(C(F)(F)F)cc1 (stereo unspecified) tested on Transient receptor potential cation channel subfamily M member 8 (Rattus norvegicus) gave pIC50: 6.74

O=C(Nc1ccc(F)cc1)N1CCc2cccc(F)c2C1c1ccc(C(F)(F)F)cc1 (stereo unspecified) tested on Transient receptor potential cation channel subfamily M member 8 (Rattus norvegicus) gave pIC50: 6.10

O=C(Nc1ccccc1)N1CCc2sccc2C1c1ccccc1C(F)(F)F (stereo unspecified) tested on Transient receptor potential cation channel subfamily M member 8 (Rattus norvegicus) gave pIC50: 6.62

O=C(Nc1ccc(F)cc1)N1CCc2c(F)cccc2C1c1ccc(C(F)(F)F)cc1 (stereo unspecified) tested on Transient receptor potential cation channel subfamily M member 8 (Rattus norvegicus) gave pIC50: 7.00

O=C(Nc1ccc(F)cc1)N1CCc2scnc2C1c1ccc(C(F)(F)F)cc1 (stereo unspecified) tested on Transient receptor potential cation channel subfamily M member 8 (Rattus norvegicus) gave pIC50: 7.03

CC(C)NC(=O)N1CCc2sccc2C1c1ccc(C(F)(F)F)cc1 (stereo unspecified) tested on Transient receptor potential cation channel subfamily M member 8 (Rattus norvegicus) gave pIC50: 6.26

O=C(Nc1ccccc1)N1CCc2sccc2C1c1cccc(F)c1 (stereo unspecified) tested on Transient receptor potential cation channel subfamily M member 8 (Rattus norvegicus) gave pIC50: 5.88

O=C(Nc1ccccc1)N1CCc2sccc2C1c1ccc(Cl)cc1 (stereo unspecified) tested on Transient receptor potential cation channel subfamily M member 8 (Rattus norvegicus) gave pIC50: 6.25

O=C(Nc1ccc(F)cc1)N1CCc2occc2C1c1ccc(C(F)(F)F)cc1 (stereo unspecified) tested on Transient receptor potential cation channel subfamily M member 8 (Rattus norvegicus) gave pIC50: 6.59

O=C(Nc1ccc(F)cc1)N1CCc2ccoc2C1c1ccc(C(F)(F)F)cc1 (stereo unspecified) tested on Transient receptor potential cation channel subfamily M member 8 (Rattus norvegicus) gave pIC50: 6.64

O=C(Nc1ccc(F)cc1)N1CCc2cc(F)ccc2C1c1ccc(C(F)(F)F)cc1 (stereo unspecified) tested on Transient receptor potential cation channel subfamily M member 8 (Rattus norvegicus) gave pIC50: 6.52

O=C(Nc1ccccc1)N1CCc2sccc2C1c1ccc(F)cc1 (stereo unspecified) tested on Transient receptor potential cation channel subfamily M member 8 (Rattus norvegicus) gave pIC50: 5.74

O=C(NC1CC1)N1CCc2sccc2C1c1ccc(C(F)(F)F)cc1 (stereo unspecified) tested on Transient receptor potential cation channel subfamily M member 8 (Rattus norvegicus) gave pIC50: 5.92

O=C(Nc1ccccc1)N1CCc2sccc2C1c1ccccc1Cl (stereo unspecified) tested on Transient receptor potential cation channel subfamily M member 8 (Rattus norvegicus) gave pIC50: 6.85

O=C(Nc1ccc(F)cc1)N1CCc2sccc2C1c1ccc(C(F)(F)F)cc1 (stereo unspecified) tested on Transient receptor potential cation channel subfamily M member 8 (Rattus norvegicus) gave pIC50: 6.47

O=C(Nc1ccccc1)N1CCc2sccc2C1c1cccc(Cl)c1 (stereo unspecified) tested on Transient receptor potential cation channel subfamily M member 8 (Rattus norvegicus) gave pIC50: 5.54

O=C(Nc1ccc(Cl)cc1)N1CCc2sccc2C1c1ccc(C(F)(F)F)cc1 (stereo unspecified) tested on Transient receptor potential cation channel subfamily M member 8 (Rattus norvegicus) gave pIC50: 5.79

O=C(Nc1ccc(F)cc1)N1CCc2ccc(F)cc2C1c1ccc(C(F)(F)F)cc1 (stereo unspecified) tested on Transient receptor potential cation channel subfamily M member 8 (Rattus norvegicus) gave pIC50: 6.72

O=C(Cc1ccc(F)cc1)N1CCc2sccc2C1c1ccc(C(F)(F)F)cc1 (stereo unspecified) tested on Transient receptor potential cation channel subfamily M member 8 (Rattus norvegicus) gave pIC50: 6.05

CCCC1c2ccsc2CCN1C(=O)Nc1ccccc1 (stereo unspecified) tested on Transient receptor potential cation channel subfamily M member 8 (Rattus norvegicus) gave pIC50: 6.53

CCCC1c2ccsc2CCN1C(=O)Nc1ccc(Cl)cc1 (stereo unspecified) tested on Transient receptor potential cation channel subfamily M member 8 (Rattus norvegicus) gave pIC50: 5.86

O=C(Nc1cccc(F)c1)N1CCc2sccc2C1c1ccc(C(F)(F)F)cc1 (stereo unspecified) tested on Transient receptor potential cation channel subfamily M member 8 (Rattus norvegicus) gave pIC50: 6.11

O=C(Nc1ccccc1)N1CCc2sccc2C1C1CC1 (stereo unspecified) tested on Transient receptor potential cation channel subfamily M member 8 (Rattus norvegicus) gave pIC50: 5.25

O=C(Nc1ccc(F)cc1)N1Cc2ccccc2C1c1ccc(C(F)(F)F)cc1 (stereo unspecified) tested on Transient receptor potential cation channel subfamily M member 8 (Rattus norvegicus) gave pIC50: 6.47

O=C(Nc1ccccc1F)N1CCc2sccc2C1c1ccc(C(F)(F)F)cc1 (stereo unspecified) tested on Transient receptor potential cation channel subfamily M member 8 (Rattus norvegicus) gave pIC50: 6.22

O=C(Nc1ccccc1)N1CCc2sccc2C1c1ccccc1 (stereo unspecified) tested on Transient receptor potential cation channel subfamily M member 8 (Rattus norvegicus) gave pIC50: 5.77

O=C(Nc1ccc(F)cc1)N1CCc2nc[nH]c2C1c1ccc(C(F)(F)F)cc1 (stereo unspecified) tested on Transient receptor potential cation channel subfamily M member 8 (Rattus norvegicus) gave pIC50: 5.84

O=C(Nc1ccccc1)N1CCc2sccc2C1c1cccc(C(F)(F)F)c1 (stereo unspecified) tested on Transient receptor potential cation channel subfamily M member 8 (Rattus norvegicus) gave pIC50: 5.74

CC(C)C(=O)N1CCc2sccc2C1c1ccc(C(F)(F)F)cc1 (stereo unspecified) tested on Transient receptor potential cation channel subfamily M member 8 (Rattus norvegicus) gave pIC50: 5.90

CC1c2ccsc2CCN1C(=O)Nc1ccccc1 (stereo unspecified) tested on Transient receptor potential cation channel subfamily M member 8 (Rattus norvegicus) gave pIC50: 5.17

COc1ccc(NC(=O)N2CCc3sccc3C2c2ccc(C(F)(F)F)cc2)cc1 (stereo unspecified) tested on Transient receptor potential cation channel subfamily M member 8 (Rattus norvegicus) gave pIC50: 5.63

O=C(Nc1ccccc1)N1CCc2sccc2C1c1ccccc1F (stereo unspecified) tested on Transient receptor potential cation channel subfamily M member 8 (Rattus norvegicus) gave pIC50: 5.64

O=C(Nc1ccc(F)cc1)N1CCc2ccsc2C1c1ccc(C(F)(F)F)cc1 (stereo unspecified) tested on Transient receptor potential cation channel subfamily M member 8 (Rattus norvegicus) gave pIC50: 6.82

Cn1cnc2c1CCN(C(=O)Nc1ccc(F)cc1)C2c1ccc(C(F)(F)F)cc1 (stereo unspecified) tested on Transient receptor potential cation channel subfamily M member 8 (Rattus norvegicus) gave pIC50: 6.59
